- SYSTEM TESTED: Dual specificity protein kinase CLK1 (Homo sapiens, UniProt P49759)
- Sequence (P49759 whole entry, looked up, the tested form may be a part): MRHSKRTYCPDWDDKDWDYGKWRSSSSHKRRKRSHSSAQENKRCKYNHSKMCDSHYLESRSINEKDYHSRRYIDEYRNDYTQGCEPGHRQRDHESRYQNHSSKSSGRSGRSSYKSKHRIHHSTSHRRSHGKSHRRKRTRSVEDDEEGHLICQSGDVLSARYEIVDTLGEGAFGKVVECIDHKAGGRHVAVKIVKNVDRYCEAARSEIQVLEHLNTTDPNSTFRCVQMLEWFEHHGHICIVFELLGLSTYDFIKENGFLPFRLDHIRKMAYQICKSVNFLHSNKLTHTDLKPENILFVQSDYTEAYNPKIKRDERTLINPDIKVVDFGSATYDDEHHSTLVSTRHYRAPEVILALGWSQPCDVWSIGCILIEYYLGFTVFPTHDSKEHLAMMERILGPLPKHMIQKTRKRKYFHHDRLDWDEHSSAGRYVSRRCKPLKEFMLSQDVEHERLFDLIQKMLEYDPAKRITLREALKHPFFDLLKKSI
- PROTOCOL SUMMARY: Inhibition of human recombinant GST-tagged Clk1 (129 to 484 residues) expressed in Escherichia coli expression system at 100 nM using GRSRSRSRSRSRSRS peptide as substrate incubated for 15 mins in presence of ATP by phosphoimager analysis relative to control
Please note: fulfilled applies when inhibition is 50% or greater, and not fulfilled applies otherwise.

COc1ccc(F)c(C(=O)NC(=O)c2cc3cc(OC)ccc3s2)c1 : not fulfilled
COc1ccc2sc(C(=O)NC(=O)c3cc(C(F)(F)F)ccc3OC)cc2c1 : not fulfilled
COc1ccc2sc(C(=O)NC(=O)c3cc(Cl)ccc3OC)cc2c1 : fulfilled

Prompt: Could you verify whether the entry CCCOc1ccccc1C(=O)NC(=O)c1cc2cc(OC)ccc2s1 shows inhibition of no less than 50%?
Response: fulfilled

Prompt: Also check COc1ccc2sc(C(=O)NC(=O)c3cc(F)cc(F)c3)cc2c1
Response: fulfilled

Prompt: Repeat with COc1ccc2sc(C(=O)NC(=O)c3ccc(F)cc3OC)cc2c1
Response: fulfilled

Prompt: Can you handle COc1ccc2sc(C(=O)NC(=O)c3ccccc3C)cc2c1 next?
Response: not fulfilled

Prompt: What do you have for COc1cccc(C(=O)NC(=O)c2cc3cc(OC)ccc3s2)c1 ?
Response: not fulfilled

Prompt: Subsequent entry: COc1ccc2sc(C(=O)NC(=O)c3cccc(F)c3)cc2c1
Response: not fulfilled

Prompt: Quick one: COc1ccc2sc(C(=O)NC(=O)c3cc(C)on3)cc2c1
Response: not fulfilled
